- assay_name: in vitro
- assay_context: rat, microsomes, pH 7.4
value_kind: microsomal CLint at 0.5 μM

Recorded microsomal CLint at 0.5 μM of O=C1c2c(cccc2N2C3CCC2CNC3)CN1CCc1ccc2ccccc2n1 , please.
< 100 µL/min/mg

###

- test_target: PDE10A (human) (Homo sapiens, UniProt Q9Y233)
- Sequence (Q9Y233 whole entry): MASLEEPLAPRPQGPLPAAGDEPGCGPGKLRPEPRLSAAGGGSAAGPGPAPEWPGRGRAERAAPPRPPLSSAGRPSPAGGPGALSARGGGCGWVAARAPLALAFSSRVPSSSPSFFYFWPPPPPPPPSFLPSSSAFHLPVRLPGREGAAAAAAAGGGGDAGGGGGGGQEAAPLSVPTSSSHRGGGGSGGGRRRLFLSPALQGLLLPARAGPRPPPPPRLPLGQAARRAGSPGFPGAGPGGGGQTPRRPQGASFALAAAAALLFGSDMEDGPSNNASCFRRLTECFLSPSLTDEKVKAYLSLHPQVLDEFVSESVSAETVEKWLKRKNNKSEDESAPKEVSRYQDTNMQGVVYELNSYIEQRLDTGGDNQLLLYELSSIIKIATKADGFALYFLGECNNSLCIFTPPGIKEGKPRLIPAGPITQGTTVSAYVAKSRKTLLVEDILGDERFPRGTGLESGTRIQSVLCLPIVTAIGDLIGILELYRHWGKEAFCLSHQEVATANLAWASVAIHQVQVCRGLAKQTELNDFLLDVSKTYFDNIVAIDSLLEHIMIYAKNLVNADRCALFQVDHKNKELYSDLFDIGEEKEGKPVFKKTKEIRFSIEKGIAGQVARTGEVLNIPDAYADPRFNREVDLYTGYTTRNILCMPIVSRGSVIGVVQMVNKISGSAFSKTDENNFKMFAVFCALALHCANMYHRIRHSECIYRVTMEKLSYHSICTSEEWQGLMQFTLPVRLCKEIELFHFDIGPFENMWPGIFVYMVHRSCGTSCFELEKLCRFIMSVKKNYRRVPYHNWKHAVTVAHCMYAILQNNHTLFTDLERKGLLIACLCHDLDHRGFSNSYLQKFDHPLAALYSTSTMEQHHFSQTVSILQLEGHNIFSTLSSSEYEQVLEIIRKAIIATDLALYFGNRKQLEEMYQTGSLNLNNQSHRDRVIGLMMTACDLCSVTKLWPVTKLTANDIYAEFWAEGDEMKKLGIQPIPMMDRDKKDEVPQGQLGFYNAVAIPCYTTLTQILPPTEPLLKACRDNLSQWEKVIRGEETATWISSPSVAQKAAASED
Structures can show the parent of a compound that is named as a salt.
Let's look at some compounds and their measured IC50.

Study these solved cases before continuing.
| compound | IC50 |
| --- | --- |
| CN(C)Cc1ccc(-c2cccc3c2C(=O)N(CCc2ccc4ccccc4n2)C3)cc1 [Example 188, (dihydrochloride)] | 200 to 500 nM |
| O=C(O)C(F)(F)F.O=C(O)C(F)(F)F.O=C1c2c(-c3ccc(F)cc3)ccnc2CN1CCc1ccc2ccccc2n1 | < 100 nM |
| O=C1c2c(-c3ccoc3)ccnc2CN1CCc1ccc2ccccc2n1 | < 100 nM |

Please provide the recorded IC50 for O=C1c2cccc(-c3cccnc3)c2C(=O)N1CCc1ccc2ccccc2n1 , tested on PDE10A (human) (Homo sapiens, UniProt Q9Y233).
< 100 nM

Please provide the recorded IC50 for O=C1c2c(cccc2-c2ccncc2Cl)CN1CCc1ccc2ccccc2n1 [Example 170, trifluoroacetate] , tested on PDE10A (human) (Homo sapiens, UniProt Q9Y233).
< 100 nM

Please provide the recorded IC50 for O=C1c2cccc(N3CCS(=O)(=O)CC3)c2CN1CCc1ccc2ccccc2n1 , tested on PDE10A (human) (Homo sapiens, UniProt Q9Y233).
200 to 500 nM

Please provide the recorded IC50 for Cc1ccnc(CCN2Cc3nccc(N4CCOCC4)c3C2=O)c1 , tested on PDE10A (human) (Homo sapiens, UniProt Q9Y233).
200 to 500 nM

Please provide the recorded IC50 for O=C1c2c(N3CCOCC3)ccnc2CN1CCc1ccc2sccc2n1 , tested on PDE10A (human) (Homo sapiens, UniProt Q9Y233).
< 100 nM

Please provide the recorded IC50 for O=C1c2c(cccc2-c2cccnc2)CN1CCc1nc2ncccc2[nH]1 , tested on PDE10A (human) (Homo sapiens, UniProt Q9Y233).
200 to 500 nM

###

- test_target: PDE10A (human) (Homo sapiens)
Counter-ions that a name gives are not always drawn.
value_kind: IC50

| compound | IC50 |
| --- | --- |
| Cn1ccc(-c2ccnc3c2C(=O)N(CCc2ccc4ccccc4n2)C3)c1 [Example 337] | 100 to 200 nM |

Please provide the recorded IC50 for Cn1c(CCN2Cc3nccc(-c4cncnc4)c3C2=O)nc2ccccc21 [Example 364] , tested on PDE10A (human) (Homo sapiens).
< 100 nM

Please provide the recorded IC50 for Cn1c(CCN2Cc3cccc(-c4ccncc4)c3C2=O)nc2cc(F)ccc21 [Example 221, trifluoroacetate] , tested on PDE10A (human) (Homo sapiens).
< 100 nM

Please provide the recorded IC50 for Cc1noc(C)c1-c1cccc2c1CN(CCc1ccc3ccccc3n1)C2=O [Example 349] , tested on PDE10A (human) (Homo sapiens).
200 to 500 nM

###

Data export: pIC50 values recorded with PDE10A (human) (Homo sapiens).
pIC50: −log10 of the molar value. Where a name gives a salt, the structure may show the parent alone.

| molecule | pIC50 |
| --- | --- |
| Cc1ccc2c(c1)nc(CCN1Cc3nccc(NC4COC4)c3C1=O)n2C | > 7.00 |

Please provide the recorded pIC50 for COc1ccc(-c2cccnc2)c2c1CN(CCc1ccc3ccccc3n1)C2=O [Example 185, trifluoroacetate] , tested on PDE10A (human) (Homo sapiens).
> 7.00

###

- assay_name: Determination of the microsomal half-life, human liver microsomes
- assay_context: human, liver microsomes, pH 7.4
Counter-ions that a name gives are not always drawn.
value_kind: microsomal CLint at 0.5 μM

Recorded microsomal CLint at 0.5 μM of O=C1c2c(OCF)ccc(-c3cncnc3)c2C(=O)N1CCc1cn2ccccc2n1 [compound 545] , please.
< 100 µL/min/mg

Recorded microsomal CLint at 0.5 μM of O=C1c2cccc(-c3ccncc3)c2CN1CCc1nc2ccccc2s1 [compound 431] , please.
< 100 µL/min/mg

Recorded microsomal CLint at 0.5 μM of CN1CCN(c2ccnc3c2C(=O)N(CCc2cn4ccccc4n2)C3)CC1 [Example 273] , please.
< 100 µL/min/mg

Recorded microsomal CLint at 0.5 μM of CN1CCN(Cc2cccc3c2C(=O)N(CCc2ccc4ccccc4n2)C3)CC1 [Example 177] , please.
< 100 µL/min/mg

Recorded microsomal CLint at 0.5 μM of Cn1c(CCN2Cc3cccc(N4CCS(=O)(=O)CC4)c3C2=O)nc2ccccc21 [Example 184, trifluoroacetate] , please.
100 to 220 µL/min/mg

###

- assay_name: Determination of the microsomal half-life, rat liver microsomes
- assay_context: rat, liver microsomes, pH 7.4
Where a name gives a salt, the structure may show the parent alone.
value_kind: microsomal CLint at 0.5 μM

Recorded microsomal CLint at 0.5 μM of O=C1c2c(cccc2N2C[C@@H]3CCCNC[C@H]3C2)CN1CCc1ccc2ccccc2n1 [Example 317, trifluoroacetate] , please.
< 100 µL/min/mg

Recorded microsomal CLint at 0.5 μM of O=C1c2c(cccc2-c2ccncc2)CN1CCc1nc2ccccc2s1 [Example 223, trifluoroacetate] , please.
< 100 µL/min/mg

Recorded microsomal CLint at 0.5 μM of COc1cccc(CCN2Cc3nccc(-c4ccncc4)c3C2=O)n1 , please.
100 to 220 µL/min/mg

Recorded microsomal CLint at 0.5 μM of O=C1c2c(N3CCC(CF)C3)ccnc2CN1CCc1cn2ccccc2n1 (stereo not shown) , please.
100 to 220 µL/min/mg

###

Let's look at some molecules and their measured microsomal CLint at 0.5 μM.
- assay_name: Determination of the microsomal half-life, human liver microsomes
- assay_context: human, liver microsomes, pH 7.4
Where a name gives a salt, the structure may show the parent alone.

| molecule | microsomal CLint at 0.5 μM |
| --- | --- |
| [2H]c1nc2c(c(N3C([2H])([2H])C([2H])([2H])OC([2H])([2H])C3([2H])[2H])c1[2H])C(=O)N(C([2H])([2H])Cc1nc3c([2H])c([2H])c([2H])c([2H])c3c([2H])c1[2H])C2([2H])[2H] | 100 to 220 µL/min/mg |
| COc1ccc(-c2ccncc2)c2c1CN(CCc1cn3ccccc3n1)C2=O | < 100 µL/min/mg |
| Cc1ccnc(CCN2Cc3nccc(N4CCOCC4)c3C2=O)c1 | < 100 µL/min/mg |
| COc1cccc(CCN2Cc3nccc(N4CCOCC4)c3C2=O)n1 | < 100 µL/min/mg |

Recorded microsomal CLint at 0.5 μM of Cc1cccnc1CCN1Cc2nccc(-c3ccncc3)c2C1=O , please.
< 100 µL/min/mg

Recorded microsomal CLint at 0.5 μM of O=C1c2c(-c3ccncc3)ccnc2CN1CCc1nc2ccc(Cl)cc2s1 , please.
< 100 µL/min/mg

Recorded microsomal CLint at 0.5 μM of O=C1c2c(-c3ccoc3)ccnc2CN1CCc1cn2ccccc2n1 , please.
< 100 µL/min/mg

Recorded microsomal CLint at 0.5 μM of O=C1c2c(cccc2N2CCOCC2)CN1CCc1nc2ccccn2n1 , please.
< 100 µL/min/mg

Recorded microsomal CLint at 0.5 μM of Cc1ncc(-c2ccnc3c2C(=O)N(CCc2nc4ccccc4s2)C3)cn1 , please.
< 100 µL/min/mg

Recorded microsomal CLint at 0.5 μM of Cc1ccc2ccc(CCN3Cc4nccc(-c5ccncc5)c4C3=O)nc2c1 [compound 394, trifluoroacetate] , please.
< 100 µL/min/mg

Recorded microsomal CLint at 0.5 μM of O=C1c2c(-c3ccoc3)ccnc2CN1CCc1nc2ccccc2s1 [compound 422, trifluoroacetate] , please.
< 100 µL/min/mg

Recorded microsomal CLint at 0.5 μM of O=C1c2c(NC3COC3)ccnc2CN1CCc1cn2ccccc2n1 , please.
< 100 µL/min/mg

Recorded microsomal CLint at 0.5 μM of O=C1c2c(N3CCS(=O)(=O)CC3)ccnc2CN1CCc1nc2ccccc2s1 [compound 390, trifluoroacetate] , please.
< 100 µL/min/mg

Recorded microsomal CLint at 0.5 μM of CCn1c(CCN2Cc3cccc(N4CCOCC4)c3C2=O)nc2ccccc21 , please.
100 to 220 µL/min/mg

Recorded microsomal CLint at 0.5 μM of O=C1c2c(N3CCOCC3)ccnc2CN1CCc1cn2ccccc2n1 [Example 270, di-trifluoroacetate] , please.
< 100 µL/min/mg

Recorded microsomal CLint at 0.5 μM of Cc1cnc(CCN2Cc3nccc(-c4ccncc4)c3C2=O)cc1C [compound 507, trifluoroacetate] , please.
100 to 220 µL/min/mg

###

- assay_name: Determination of the microsomal half-life, rat liver microsomes
- assay_context: rat, liver microsomes, pH 7.4
Let's look at some compounds and their measured microsomal CLint at 0.5 μM.

Study these solved cases before continuing.
| compound | val |
| --- | --- |
| O=C1c2c(cccc2NC2COC2)CN1CCc1ccc2ccccc2n1 [Example 274] | 100 to 220 µL/min/mg |
| O=C1c2c(N3CCOCC3)ccnc2CN1CCc1nc2ccccn2n1 [Example 227] | < 100 µL/min/mg |
| Cn1c(CCN2Cc3nccc(-c4cccnc4)c3C2=O)nc2ccccc21 [Example 368] | < 100 µL/min/mg |

Recorded microsomal CLint at 0.5 μM of Cn1c(CCN2Cc3nccc(N4CCOCC4)c3C2=O)nc2ccccc21 [Example 216] , please.
< 100 µL/min/mg

Recorded microsomal CLint at 0.5 μM of O=C1c2c(cccc2NC2CNC2)CN1CCc1ccc2ccccc2n1 [Example 145] , please.
< 100 µL/min/mg

Recorded microsomal CLint at 0.5 μM of COc1ccc(-c2cn[nH]c2)c2c1CN(CCc1cn3ccccc3n1)C2=O [Example 372] , please.
< 100 µL/min/mg

Recorded microsomal CLint at 0.5 μM of O=C1c2c(-c3ccncc3F)ccnc2CN1CCc1cn2ccccc2n1 [compound 534] , please.
< 100 µL/min/mg
